Reference for the values: patent US10849901B2

# TESTED_ON: Arf6 (Homo sapiens (Human), UniProt P62330)
# Sequence (P62330 14-175): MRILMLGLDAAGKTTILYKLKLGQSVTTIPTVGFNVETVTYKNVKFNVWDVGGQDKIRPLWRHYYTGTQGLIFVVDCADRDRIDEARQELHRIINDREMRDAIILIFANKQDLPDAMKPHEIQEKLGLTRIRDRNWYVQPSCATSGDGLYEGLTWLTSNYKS
# ASSAY_OVERVIEW: Fluorometric assay for Arf6 nucleotide exchange catalyzed by ARNO Sec7 domain (GTP-BODIPY FL)
# Assay type: biochemical
# CONDITION_SET: 20 nM Arf6 assay; read-out: IC50 (μM) 20 nM Arf6
Records here are stratified by IC50; strata: lower: < 3 µM; middle: ≥ 3 µM and < 6 µM; upper: ≥ 6 µM

input: Tag the class for Cc1nn2c(=O)cc(-c3ccc(NC(=O)Cc4ccccc4)cc3)[nH]c2c1-c1ccc(Cl)cc1
output: lower

input: Class (by measured IC50) for CC(=O)Nc1ccc(-c2cc(=O)n3nc(C(F)(F)F)c(-c4ccc(Cl)cc4)c3[nH]2)cc1
output: middle

input: Hey, which category is O=c1nc(/C=C/c2ccc(-c3cc(Cl)cc(Cl)c3)o2)cc(C(F)(F)F)[nH]1 in, do you know?
output: middle

input: Hi there! Could you help me figure out the category for N#Cc1ccc(-c2cc(=O)n3nc(C4CC4)c(-c4ccc(Cl)cc4)c3[nH]2)cc1 please?
output: middle

input: // return the class label for O=C(O)c1ccc(-c2cc(=O)n3nc(C4CC4)c(-c4ccc(Cl)cc4)c3[nH]2)cc1
output: upper

input: Hello team, could you let me know which band the following compound falls into: CC(C)(C)c1nn2c(=O)cc(-c3cccnc3)[nH]c2c1-c1ccc(Cl)cc1
output: upper

input: // return the class label for O=c1cc(-c2cccc(Oc3cc(F)cc(F)c3)c2)[nH]c2c(-c3ccc(Cl)c(Cl)c3)c(C(F)(F)F)nn12
output: lower

input: Which category does the recorded IC50 put CC(C)(C)c1nn2c(=O)cc(-c3cccc(C(=O)O)c3)[nH]c2c1-c1ccc(Cl)cc1 in?
output: upper

input: Could you place Nc1cccc(-c2cc(=O)n3nc(C(F)(F)F)c(-c4ccc(Cl)cc4)c3[nH]2)c1 in its proper category? Many thanks.
output: upper

input: Please classify: O=c1cc(-c2cccc(Oc3ccccc3)c2)[nH]c2c(-c3ccc(Cl)c(Cl)c3)c(C(F)(F)F)nn12
output: lower

input: For the record O=c1cc(-c2cccc([N+](=O)[O-])c2)[nH]c2c(-c3ccc(Cl)cc3)c(C(F)(F)F)nn12 , report the class its IC50 corresponds to.
output: lower

input: Please classify: CCNC(=O)Nc1ccc(-c2cc(=O)n3nc(C)c(-c4ccc(Cl)cc4)c3[nH]2)cc1
output: upper

input: Class (by measured IC50) for N#Cc1c(=O)n(-c2ccc(Cl)cc2)nc2c(=O)n(N)c(-c3ccccc3Cl)cc12
output: lower

input: Where would N#Cc1cccc(-c2cc(=O)n3nc(C4CC4)c(-c4ccc(Cl)cc4)c3[nH]2)c1 land among the classes by reported IC50?
output: middle

input: Exercise: read the entry Cc1nn2c(=O)cc(-c3ccc(NS(=O)(=O)Cc4ccccc4)cc3)[nH]c2c1-c1ccc(Cl)cc1 and state which class it falls under.
output: middle

input: Could you place CCCc1cc(=O)[nH]c(SCc2cc(=O)n3cc(Br)ccc3n2)n1 in its proper category? Many thanks.
output: upper

----------
# TESTED_ON: Arf6 (Homo sapiens (Human), UniProt P62330)
# ASSAY_OVERVIEW: Fluorometric assay for Arf6 nucleotide exchange catalyzed by ARNO Sec7 domain (GTP-BODIPY FL)
# Assay type: biochemical
# CONDITION_SET: 20 nM Arf6 assay; read-out: IC50 (μM) 20 nM Arf6
Would you kindly list IC50 for each of these molecules?
# unit: µM | format: bare number

input: Give its IC50 value. Item: Fc1ccc(C2CC(c3cccs3)=NN2c2nc(-c3ccc(-c4ccccc4)cc3)cs2)cc1 (centres unmarked)
output: 16

input: # lookup: IC50 of Cc1nn2c(=O)cc(-c3cccc(-c4cccnc4)c3)[nH]c2c1-c1ccc(Cl)cc1
output: 3

input: State the recorded IC50 for this entry: NC(=O)c1ccc(-c2cc(=O)n3nc(Cc4ccccc4)c(-c4ccc(Cl)cc4)c3[nH]2)cc1
output: 3.7

input: Which IC50 reading was recorded for the molecule O=c1cc(-c2ccc(Oc3ccccc3)cc2)[nH]c2c(-c3ccc(Cl)c(Cl)c3)c(C(F)(F)F)nn12 ?
output: 0.66

input: Name the reported IC50 value associated with the molecule O=c1cc(-c2ccc([N+](=O)[O-])cc2)[nH]c2c(-c3ccccc3)c(C(F)(F)F)nn12
output: 4.2

input: Value lookup for IC50; key = CSc1nnc2c(n1)OC(c1cc(O)ccc1[N+](=O)[O-])Nc1ccccc1-2 (centres unmarked)
output: 17

input: Consider the molecule shown here: O=c1cc(Cc2cccnc2)[nH]c2c(-c3ccc(Cl)cc3)c(C(F)(F)F)nn12 What is its recorded IC50?
output: 14

input: Looking for the measured IC50 of CC(C)CC(=O)Nc1ccc(-c2cc(=O)n3nc(C(F)(F)F)c(-c4ccc(Cl)cc4)c3[nH]2)cc1 , can you help?
output: 1.7
